- Tested on: MS2 coat protein
- assay name: apparent KD of MS2 coat protein; designed switch direction (-1 OFF switch, 1 ON switch): -1; higher = weaker reporter binding
- conditions used: input ligand: none
measure name: apparent KD of MS2 coat protein
Give the number first and the unit second.

Exercise: Quick one: apparent KD of MS2 coat protein of UACCUGAGGCAAAGCUUUAGGUAAACAUGAGGAUCACCCAUGUAGGAUAUGGUAGGCUUUGCUUACCAGAAGGACAUGUUAAUU [Mat - Exclusion NG 3 - Mod of JL - D33] (Eterna round: R96, puzzle: Exclusion NG 3) ?
Solution: 59.7 nM

Exercise: Consider the sequence GGAAGAGAGUUAGGAUAUAUAAGAAGAAUGUGGGUAGAAGGAACGAAACAUGAGGAUCACCCAUGUCCCAUGUUGAGGAGGAGG (Eterna round: R96, puzzle: Exclusion NG 1) and give its measured apparent KD of MS2 coat protein.
Solution: 560 nM

Exercise: // query apparent KD of MS2 coat protein value for entry GCUGGUCGAGGAUAUGCAAUCGUGCUUCGGCACGUAAGAUCACAUGAGGAUCACCCAUGUAGAAGGUGACCAGC [E2/3-B1] (Eterna round: R97, puzzle: Exclusion 2)
Solution: 17.8 nM

Exercise: What value of apparent KD of MS2 coat protein has been reported for the following sequence? AGUUGGCGAGGAUAUACAUGAGGAUCACCCAUGUGAUAUUAAAGUGAGGAAAUGAAAAGUAGAAGGCGCUGACA [Mod of Mat 24 - Jieux - Exclusion 3] (Eterna round: R97, puzzle: Exclusion 3)
Solution: 47.3 nM

Exercise: Suppose we examine the sequence UUUUAGCAAGCGAGAUCCCACAUGAGGAUCACCCAUGUGCAUCCAGAAUUACUUUUUGCAUAAGCUCGUCUUAUAUA [JR_STOV1_v2_Sub080] (Eterna round: R97, puzzle: Sensor, turn-off variant 1) ; what apparent KD of MS2 coat protein value has been reported?
Solution: 64.5 nM

----------
- Tested on: MS2 coat protein
- assay name: apparent KD of MS2 coat protein; higher = weaker reporter binding
- conditions used: Eterna round: R107; input ligand: theophylline 2 mM
Classify by measured apparent KD of MS2 coat protein: condition met if it is equal to or exceeds 90 nM, condition not met if it is smaller.

1. UAAACUACACAUGAGGAUCACCCAUGUGGCCGAGGACCGGUACGGCCGCCACUCGUGUGUUAAUAAUAGAACUGCAAGGUUCUGU [Enindidiso] = condition met
2. GAUUUAACAAAAGUUAGAUCAGUGGGUGAACGAGGACCGGUACGGCCGCCACUCGGACAUGAGGAUCACCCAUGUCCAUGUGAAA [AstrosExyTryA#20] = condition not met
3. UGAUUGAACGGAAGGAGCGUGAAGAGAGAGAAACAUGAGGAUCACCCAUGUAGAGAGAGAUCACAGGUAGGUCGCCGAGAGAUUG [11.C] = condition not met
4. UCGAAUGCGGCGGCCGCCACUCGCGGAUAACGAUAGCUUAACAUGAGGAUCACCCAUGUGUCAUGGAGGACCGGGCCCAUACGGU [kmkmullin] = condition not met
5. GGUAUGUAUUCGGAAACGAAUGCAUACCAACGAGGACCGGUACGGCCGCCACUCGGGCCGUGAUCACAUGAGGAUCACCCAUGUA [Ex Tryptophan A 5] = condition not met

Exercise: Given CGAUAGGGUCAAUACCUAAUCAUAUCUGAAGGAGCGUGGAUAUACACAGGUAGGUCGCAGAAUCACAUGAGGAUCACCCAUGUCC [Same State Arginine A GF13] , state whether its apparent KD of MS2 coat protein is at least 90 nM.
Solution: condition met

Exercise: Does the sequence CCGGCCGCAUGAAGGAGCGCACAGCGCUCGCACAUGAGGAUCACCCAUGUAAAUGGGUGCGUGCAGGUAGGUCGCAUGCAGGCAA [Lesobete] have recorded apparent KD of MS2 coat protein that is 90 nM or more?
Solution: condition met
